# testDetails: Dog plasma PK, IV and oral
# Format: in vivo
# conditionSet: male, Beagle, dog, plasma, iv, 2.1 mg/kg, IV 2.1 mg kg-1, Mean
measurementName: AUC(0-t) (µM·h)

1. Cc1nc(Nc2ncc(N3CCN(C)[C@H](C)C3)c(Nc3cc(C)n(C)n3)n2)cc(C2CC2)c1F
2.42

====

# testDetails: Rat blood PK, IV and oral
# Format: in vivo
# conditionSet: Wistar, rat, whole blood, iv, 2 mg/kg, IV 2 mg kg-1, Rat 1
measurementName: MRT (h)

1. Cc1nc(Nc2ncc(N3CCN(C)[C@H](C)C3)c(Nc3cc(C)n(C)n3)n2)cc(C2CC2)c1F [compound 12]
11.8

Where do the numbers come from? From paper PMC4389225.
